Overview of recorded pIC50 for various compounds
- Measured On: GPR6 (Homo sapiens)
- Construct: expressed in transfected cells; host or cells: CHO cells
- Sequence (P46095 whole entry): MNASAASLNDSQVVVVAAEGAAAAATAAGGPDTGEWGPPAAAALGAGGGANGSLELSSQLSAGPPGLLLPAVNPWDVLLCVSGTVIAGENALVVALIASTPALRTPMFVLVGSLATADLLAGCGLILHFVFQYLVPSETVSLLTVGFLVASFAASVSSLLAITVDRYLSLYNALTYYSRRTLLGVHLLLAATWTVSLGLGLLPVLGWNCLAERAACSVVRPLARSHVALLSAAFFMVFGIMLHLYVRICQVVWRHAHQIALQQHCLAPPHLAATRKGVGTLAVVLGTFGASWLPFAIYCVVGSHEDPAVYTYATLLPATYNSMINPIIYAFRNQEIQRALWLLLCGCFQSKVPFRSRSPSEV
- Protocol Summary: GPR6 antagonist functional cAMP assay (LANCE Ultra cAMP TR-FRET, CHO cells stably expressing GPR6)
- Type: cell-based
- Assay Conditions: procedure of Example 24
pIC50: −log10 of the molar value.

Compound: CC(C)(O)[C@@H](O)c1cc2nc(-c3cnn(C(F)F)c3)c(N3CCN(Cc4ccccc4F)CC3)nc2cn1 (single isomer, unassigned) [Compound 686]
Measured On: GPR6 (Homo sapiens)
pIC50: > 7.00

Compound: CC(=O)N1CCc2nc(N3CCCC(Oc4cc(F)ccc4F)C3)c(-c3cnn(C)c3)nc2C1 (stereo not drawn) [Compound 339]
Measured On: GPR6 (Homo sapiens)
pIC50: ≤ 4.52

Compound: CCn1cc(-c2nc3cnc(C(O)C(C)(C)O)cc3nc2N2CCC(Oc3ccc(F)cc3F)CC2)cn1 (stereo not drawn) [Compound 307]
Measured On: GPR6 (Homo sapiens)
pIC50: 6.00 to 7.00

Request: Name the value of pIC50 reported for COC(=O)/C=C/c1cc2nc(N3CCC(Oc4ccc(F)cc4F)CC3)c(-c3cnn(C)c3)nc2cn1 [Compound 745] when tested on GPR6 (Homo sapiens).
Result: 4.52 to 6.00

Request: For GPR6 (Homo sapiens), give pIC50 of the listed compound: Cn1cc(-c2nc3cc([C@@](C)(O)C(C)(C)O)ncc3nc2N2CCN(Cc3ccc(F)cc3F)CC2)cn1 (single isomer, unassigned) [Compound 772]
Result: 6.00 to 7.00

Request: Report pIC50 from GPR6 (Homo sapiens) testing of Cn1cc(-c2nc3cnccc3nc2N2CCC(Cc3ccc(F)cc3F)CC2)cn1 [Compound 368]
Result: > 7.00

Request: Provide the reported pIC50 (system: GPR6 (Homo sapiens)) for CC(=O)N1CCc2nc(N3CCC(=Cc4ccccc4F)CC3)c(-c3cnn(C)c3)nc2C1 [Compound 623]
Result: 6.00 to 7.00

Request: Report pIC50 on GPR6 (Homo sapiens) for this entry: CC(C)(O)[C@](C)(O)c1cc2nc(-c3cnn(CF)c3)c(N3CCN(Cc4ccccc4F)CC3)nc2cn1 (single isomer, unassigned) [Compound 716]
Result: 6.00 to 7.00

Request: Give reported pIC50 for CC(=O)N1CCc2nc(N3CCC(C(=O)Nc4ccc(F)cc4F)C3)c(-c3cnn(C)c3)nc2C1 (stereo not drawn) [Compound 365] (GPR6 (Homo sapiens))
Result: ≤ 4.52
